# target: KRAS protein containing G12D mutation (Homo sapiens (Human), UniProt P01116, G12D)
# Sequence (P01116 other isoform, or with tags, fused parts or gaps G12D (already in the parent)): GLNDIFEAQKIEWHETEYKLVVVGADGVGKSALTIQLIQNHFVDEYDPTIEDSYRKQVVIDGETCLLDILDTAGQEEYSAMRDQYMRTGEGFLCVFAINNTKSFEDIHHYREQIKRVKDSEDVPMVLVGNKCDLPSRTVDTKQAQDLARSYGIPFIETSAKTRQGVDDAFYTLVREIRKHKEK
# experiment: SOS-catalyzed nucleotide exchange assay (GNE), TR-FRET
# Assay type: biochemical
# condition: biotinylated KRAS G12D, SOS and GTP, 60-minute incubation
# Experimental: Compounds are added to this complex and then after a 60-minute incubation time the mixture is treated with SOS and unlabeled GTP. Small molecule inhibitors stabilize the Bodipy-GDP complex whereas the untreated protein rapidly exchanges Bodipy-GDP for unlabeled GTP resulting in reduced TR-FRET signal. This solution is referred to as biotinylated KRAS G12D stock solution.
Quick reference: log10(IC50) of the listed items.
endpoint.name: log10(IC50) (log10 of the value in nM)

• CN(C[C@@]1(COc2nc(N3CC4CC[C@@](C)(C3)N4)c3cc(F)c(-c4cc(O)cc5cccc(Cl)c45)c(F)c3n2)CC1(F)F)C1COC1 (single isomer, unassigned) = 2.67
• N#Cc1c(N)sc2c(F)ccc(-c3c(F)cc4c(N5C[C@H]6CC[C@@H](C5)N6)nc(OC[C@@]56CCCN5C[C@H](F)C6)nc4c3F)c12 (single isomer, unassigned) [Ex. 144a] = 0.31
• C#Cc1cccc2cccc(-c3c(F)cc4c(N5CC6CC[C@@](C)(C5)N6)nc(OC[C@@]56CCCN5C[C@H](F)C6)nc4c3F)c12 (single isomer, unassigned) [Ex. 211a] = 3.32
• CCC(=O)Oc1cc(-c2c(F)cc3c(N4CC5CC[C@@](C)(C4)N5)nc(OC[C@@]45CCCN4C[C@H](F)C5)nc3c2F)c2c(Cl)cccc2c1 (single isomer, unassigned) [Ex. 162b] = 2.69
• Cc1cc2[nH]nc(C#N)c2c(-c2c(F)cc3c(N4C[C@H]5CC[C@@H](C4)N5)nc(OC[C@@]45CCCN4C[C@H](F)C5)nc3c2F)c1C(F)(F)F (single isomer, unassigned) [Ex. 227a] = 2.28
• CN(CC(C)(C)O)CC1(COc2nc(N3C[C@H]4CC[C@@](C)(C3)N4)c3cc(F)c(-c4cc(O)cc5ccccc45)c(F)c3n2)CC1 = 1.74
• CO[C@@H]1CCN(C[C@@]2(COc3nc(N4CC5CC[C@@](C)(C4)N5)c4cc(F)c(-c5cc(O)cc6cccc(Cl)c56)c(F)c4n3)CC2(F)F)C1 (single isomer, unassigned) [Ex. 215b] = 2.63
• Cc1cc(N)nc(-c2c(Cl)cc3c(N4CC5CC(O)C(C4)N5)nc(OC[C@@]45CCCN4C[C@H](F)C5)nc3c2F)c1C(F)(F)F (single isomer, unassigned) [249a] = 2.55
• Cc1nc(N)nc(-c2c(F)cc3c(N4C[C@H]5CC[C@@H](C4)N5)nc(OC[C@@]45CCCN4C[C@H](F)C5)nc3c2F)c1C(F)(F)F = 1.74
• CN(C)CC1(COc2nc(N3CC4CCC(C3)N4)c3cc(Cl)c(-c4c(Cl)c(F)cc5[nH]ncc45)c(F)c3n2)CC1 = 2.99
• CN(C)C[C@@]1(COc2nc(N3C[C@H]4CC[C@@](C)(C3)N4)c3cc(C#N)c(-c4cc(O)cc5ccccc45)c(F)c3n2)CC1(F)F [Ex. 136a] = 0.69

====

As shown below, each of these molecules has a reported IC50 value.
# target: KRAS protein containing G12D mutation (Homo sapiens (Human), UniProt P01116, G12D)
# experiment: SOS-catalyzed nucleotide exchange assay (GNE), TR-FRET
# Assay type: biochemical
# condition: biotinylated KRAS G12D, SOS and GTP, 60-minute incubation
Structures can show the parent of a compound that is named as a salt.
endpoint.name: IC50 (nM)

• C[C@]12CC[C@H](CN(c3nc(OC[C@@]45CCCN4C[C@H](F)C5)nc4c(F)c(-c5cc(O)cc(Cl)c5Cl)c(F)cc34)C1)N2 (single isomer, unassigned) [Ex. 129a, HCl] = 17.7
• C[C@]12CCC(CN(c3nc(OC[C@@H]4CC[C@H]5CC(F)(F)CCN45)nc4c(F)c(-c5cc(O)cc6cccc(Cl)c56)c(F)cc34)C1)N2 (single isomer, unassigned) [Ex. 175a] = 738
• C#Cc1c(F)ccc2cccc(-c3c(F)cc4c(N5CC6CC[C@@](C)(C5)N6)nc(OCC56CCCN5C(COC(=O)N(C)C)CC6)nc4c3F)c12 (single isomer, unassigned) [242a] = 1.15
• Cc1cc2[nH]ncc2c(-c2c(F)cc3c(N4CC5CCC(C4)N5)nc(OCC4(CN(C)C)CC4(F)F)nc3c2F)c1C (single isomer, unassigned) [Example 66b] = 31.1
• C#Cc1cccc2scc(-c3c(F)cc4c(N5CC6CC[C@@](C)(C5)N6)nc(OCC5(CN6CCOCC6)CC5)nc4c3F)c12 (single isomer, unassigned) [Ex. 147b] = 429
